# tgt: T1, human LAP-TGFB1 Fc fusion (human)
# T1 construct: also called human LAP-TGFβ1-Fc; human LAP-TGFβ-Fc isoform 1
# methodSummary: SPR pH 6.0, antigen-Fc captured, Fab analyte
Here, each record is paired with measured kon data.
Number only, in M⁻¹ s⁻¹; omit the unit.

Before answering, review these 3 worked examples.
64BLH (Fab, V domains shown, also called 16BLM Fab) VH: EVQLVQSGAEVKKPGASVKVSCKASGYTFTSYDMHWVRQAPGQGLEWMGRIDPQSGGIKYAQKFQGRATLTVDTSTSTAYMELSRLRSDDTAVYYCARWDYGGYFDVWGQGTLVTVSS VL: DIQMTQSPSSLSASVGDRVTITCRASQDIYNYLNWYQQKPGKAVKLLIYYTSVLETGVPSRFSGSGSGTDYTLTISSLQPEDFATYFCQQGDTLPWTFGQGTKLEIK	3.49e+07
60BLH (Fab, V domains shown, also called 12BLM Fab) VH: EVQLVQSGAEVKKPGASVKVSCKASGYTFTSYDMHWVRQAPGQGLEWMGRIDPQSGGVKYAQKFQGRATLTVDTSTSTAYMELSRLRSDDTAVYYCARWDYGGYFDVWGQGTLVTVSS VL: DIQMTQSPSSLSASVGDRVTITCRASQDIYNYLNWYQQKPGKAVKLLIYYTSVLETGVPSRFSGSGSGTDYTLTISSLQPEDFATYFCQQGDELPWTFGQGTKLEIK	7.23e+06
61BLH (Fab, V domains shown, also called 13BLM Fab) VH: EVQLVQSGAEVKKPGASVKVSCKASGYTFTSYDMHWVRQAPGQGLEWMGRIDPQTGDIKYAQKFQGRATLTVDTSTSTAYMELSRLRSDDTAVYYCARWDYGGQFDVWGQGTLVTVSS VL: DIQMTQSPSSLSASVGDRVTITCRASQDIYNYLNWYQQKPGKAVKLLIYYTSGLETGVPSRFSGSGSGTDYTLTISSLQPEDFATYFCQQGDTLPWTFGQGTKLEIK	3.91e+06

QUERY: Report kon for 20E6 Fab (80BGJ/85BIT) (Fab, V domains shown, also called 20E6 (80BGJ); 20E6 (85BIT)) VH: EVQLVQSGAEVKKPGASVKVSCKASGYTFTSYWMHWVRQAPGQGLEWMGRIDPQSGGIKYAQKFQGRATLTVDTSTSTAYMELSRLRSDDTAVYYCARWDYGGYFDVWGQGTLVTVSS VL: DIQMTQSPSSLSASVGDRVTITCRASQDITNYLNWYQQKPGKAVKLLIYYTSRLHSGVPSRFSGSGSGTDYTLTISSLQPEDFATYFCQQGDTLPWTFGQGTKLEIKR
RESULT: 934000

QUERY: Report kon for 59BLH (Fab, V domains shown, also called 11BLM Fab) VH: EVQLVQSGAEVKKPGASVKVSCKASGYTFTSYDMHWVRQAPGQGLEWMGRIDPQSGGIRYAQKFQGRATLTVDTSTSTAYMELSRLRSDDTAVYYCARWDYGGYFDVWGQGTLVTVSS VL: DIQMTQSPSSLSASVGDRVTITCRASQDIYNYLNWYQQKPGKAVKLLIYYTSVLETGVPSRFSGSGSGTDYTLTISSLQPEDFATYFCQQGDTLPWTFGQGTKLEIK
RESULT: 1.11e+07

QUERY: Report kon for 66BLH (Fab, V domains shown, also called 18BLM Fab) VH: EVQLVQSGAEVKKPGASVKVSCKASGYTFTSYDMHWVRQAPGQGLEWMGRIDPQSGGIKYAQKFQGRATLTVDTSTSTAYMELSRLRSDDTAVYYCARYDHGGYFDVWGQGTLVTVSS VL: DIQMTQSPSSLSASVGDRVTITCRASQDIYNYLNWYQQKPGKAVKLLIYYTSRLETGVPSRFSGSGSGTDYTLTISSLQPEDFATYFCQQGDTLPWTFGQGTKLEIK
RESULT: 2.09e+06

QUERY: Report kon for 63BLH (Fab, V domains shown, also called 15BLM Fab; 015BLM Fab) VH: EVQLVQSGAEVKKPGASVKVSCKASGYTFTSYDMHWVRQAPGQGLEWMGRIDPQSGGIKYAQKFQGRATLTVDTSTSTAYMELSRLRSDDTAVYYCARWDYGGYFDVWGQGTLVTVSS VL: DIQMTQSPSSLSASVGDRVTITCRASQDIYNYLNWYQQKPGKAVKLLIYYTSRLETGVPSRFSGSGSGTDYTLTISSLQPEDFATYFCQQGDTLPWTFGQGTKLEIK
RESULT: 7.51e+06

QUERY: Report kon for 67BLH (Fab, V domains shown, also called 19BLM Fab) VH: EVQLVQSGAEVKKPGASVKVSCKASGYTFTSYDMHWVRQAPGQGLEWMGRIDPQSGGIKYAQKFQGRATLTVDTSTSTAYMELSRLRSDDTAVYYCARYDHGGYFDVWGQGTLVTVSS VL: DIQMTQSPSSLSASVGDRVTITCRASQDIYNYLNWYQQKPGKAVKLLIYYTSYLETGVPSRFSGSGSGTDYTLTISSLQPEDFATYFCQQGDTLPWTFGQGTKLEIK
RESULT: 7.63e+06

QUERY: Report kon for 55BLH (Fab, V domains shown, also called 07BLM Fab) VH: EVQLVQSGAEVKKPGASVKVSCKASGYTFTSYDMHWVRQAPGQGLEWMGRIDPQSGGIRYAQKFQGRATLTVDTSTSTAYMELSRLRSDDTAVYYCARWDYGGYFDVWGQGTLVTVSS VL: DIQMTQSPSSLSASVGDRVTITCRASQDIYSYLNWYQQKPGKAVKLLIYYTSNLETGVPSRFSGSGSGTDYTLTISSLQPEDFATYFCQQGDTLPWTFGQGTKLEIK
RESULT: 7.17e+06

QUERY: Report kon for 56BLH (Fab, V domains shown, also called 08BLM Fab) VH: EVQLVQSGAEVKKPGASVKVSCKASGYTFTSYDMHWVRQAPGQGLEWMGRIDPQSGGTKYAQKFQGRATLTVDTSTSTAYMELSRLRSDDTAVYYCARWDYGGQFDVWGQGTLVTVSS VL: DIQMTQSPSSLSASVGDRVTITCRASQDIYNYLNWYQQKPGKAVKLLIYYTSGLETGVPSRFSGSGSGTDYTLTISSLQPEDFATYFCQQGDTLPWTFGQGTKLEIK
RESULT: 5.55e+06
